# assay text: in vivo
# condition parameters: rat, in vivo, po, 5 mg/kg
Mark MET for reported half-life of 3 h or greater; mark NOT MET for anything smaller.

Incoming: Answer whether half-life of C#Cc1cc2c3c(c1)CCN3C(=O)C(NC(=O)c1ncn(Cc3c(F)cccc3F)n1)CC2 (stereo not drawn) is greater than or equal to 3 h.
Outgoing: MET

Incoming: Also check Cn1cc(C#Cc2cc3c4c(c2)CCN4C(=O)C(NC(=O)c2ncn(Cc4cc(F)ccc4F)n2)CC3)cn1 (stereo not drawn)
Outgoing: NOT MET

Incoming: Also check Cn1cc(C#Cc2cc3c4c(c2)CCN4C(=O)C(NC(=O)c2ncn(Cc4ccc(F)c(F)c4)n2)CC3)cn1 (stereo not drawn)
Outgoing: MET

Incoming: Also check O=C(NC1CCc2cc(C#Cc3cnn(C(F)F)c3)cc3c2N(CC3)C1=O)c1ncn(Cc2ccccc2F)n1 (stereo not drawn)
Outgoing: NOT MET

###

Consider the following compounds; for each one, report its Cmax.
# assay text: in vivo
# condition parameters: male, SD, rat, plasma, oral, 5 mg/kg
Note: state the figure and append the unit.

Incoming: Tell me the measured Cmax of CN1C(=O)[C@@H](NC(=O)c2nnc(Cc3ccccc3)[nH]2)COc2ccccc21 [GSK2982772, reference compound] , please.
Outgoing: 5.82 µg/mL

Incoming: Also check O=C(NC1CCc2cccc3c2N(CC3)C1=O)c1ncn(Cc2c(F)cccc2F)n1 (centres unmarked) [Example 13 in CN20191051 8248X, reference compound]
Outgoing: 0.467 µg/mL

###

# assay text: in vivo
# condition parameters: rat, in vivo, iv, 0.5 mg/kg
value kind: Cmax (ng/mL)
Write the number in ng/mL without appending the unit.

Incoming: Tell me the measured Cmax of O=C(NC1CCc2cc(C#Cc3cnn(C(F)F)c3)cc3c2N(CC3)C1=O)c1ncn(Cc2cc(F)ccc2F)n1 (stereo not drawn) , please.
Outgoing: 662

Incoming: Also check Cn1cc(C#Cc2cc3c4c(c2)CCN4C(=O)C(NC(=O)c2ncn(Cc4cc(F)ccc4F)n2)CC3)cn1 (stereo not drawn)
Outgoing: 1940

Incoming: Also check C#Cc1cc2c3c(c1)CCN3C(=O)C(NC(=O)c1ncn(Cc3c(F)cccc3F)n1)CC2 (stereo not drawn)
Outgoing: 896

Incoming: Also check Cn1cc(C#Cc2cc3c4c(c2)CCN4C(=O)C(NC(=O)c2ncn(Cc4ccc(F)c(F)c4)n2)CC3)cn1 (stereo not drawn)
Outgoing: 1300

Incoming: Also check Cn1cc(C#Cc2cc3c4c(c2)CCN4C(=O)C(NC(=O)c2ncn(Cc4c(F)cccc4F)n2)CC3)cn1 (stereo not drawn)
Outgoing: 1430

Incoming: Also check O=C(NC1CCc2cc(C#Cc3cnn(C(F)F)c3)cc3c2N(CC3)C1=O)c1ncn(Cc2ccccc2F)n1 (stereo not drawn)
Outgoing: 619

###

Consider the following compounds; for each one, report its half-life.
# assay text: in vivo
# condition parameters: male, SD, rat, plasma, oral, 5 mg/kg
Write the number in h without appending the unit.

Incoming: Tell me the measured half-life of CN1C(=O)[C@@H](NC(=O)c2nnc(Cc3ccccc3)[nH]2)COc2ccccc21 [GSK2982772, reference compound] , please.
Outgoing: 3.06

Incoming: Also check O=C(NC1CCc2cccc3c2N(CC3)C1=O)c1ncn(Cc2c(F)cccc2F)n1 (centres unmarked) [Example 13 in CN20191051 8248X, reference compound]
Outgoing: 0.34

###

# assay text: in vivo
# condition parameters: male, SD, rat, plasma, intravenous, 0.5 mg/kg
Consider the following compounds; for each one, report its half-life.
Note: state the figure and append the unit.

Incoming: Tell me the measured half-life of O=C(NC1CCc2cccc3c2N(CC3)C1=O)c1ncn(Cc2c(F)cccc2F)n1 (centres unmarked) [Example 13 in CN20191051 8248X, reference compound] , please.
Outgoing: 0.44 h

Incoming: Also check CN1C(=O)[C@@H](NC(=O)c2nnc(Cc3ccccc3)[nH]2)COc2ccccc21 [GSK2982772, reference compound]
Outgoing: 3.28 h

###

# assay text: in vivo
# condition parameters: male, SD, rat, plasma, oral, 5 mg/kg
Consider the following compounds; for each one, report its CL/F.
Write the number in mL/min/kg without appending the unit.

Incoming: Tell me the measured CL/F of CN1C(=O)[C@@H](NC(=O)c2nnc(Cc3ccccc3)[nH]2)COc2ccccc21 [GSK2982772, reference compound] , please.
Outgoing: 4.03

Incoming: Also check O=C(NC1CCc2cccc3c2N(CC3)C1=O)c1ncn(Cc2c(F)cccc2F)n1 (centres unmarked) [Example 13 in CN20191051 8248X, reference compound]
Outgoing: 8.37

###

# assay text: in vivo
# condition parameters: rat, in vivo, iv, 0.5 mg/kg
Mark Fulfilled for reported half-life of 2 h or greater; mark Not fulfilled for anything smaller.

Incoming: Answer whether half-life of O=C(NC1CCc2cc(C#Cc3cnn(C(F)F)c3)cc3c2N(CC3)C1=O)c1ncn(Cc2cc(F)ccc2F)n1 (stereo not drawn) [III-19] is greater than or equal to 2 h.
Outgoing: Not fulfilled

Incoming: Also check Cn1cc(C#Cc2cc3c4c(c2)CCN4C(=O)C(NC(=O)c2ncn(Cc4cc(F)ccc4F)n2)CC3)cn1 (stereo not drawn) [III-10]
Outgoing: Fulfilled

Incoming: Also check C#Cc1cc2c3c(c1)CCN3C(=O)C(NC(=O)c1ncn(Cc3c(F)cccc3F)n1)CC2 (stereo not drawn) [III-26]
Outgoing: Not fulfilled

Incoming: Also check O=C(NC1CCc2cc(C#Cc3cnn(C(F)F)c3)cc3c2N(CC3)C1=O)c1ncn(Cc2ccccc2F)n1 (stereo not drawn) [III-21]
Outgoing: Not fulfilled

Incoming: Also check Cn1cc(C#Cc2cc3c4c(c2)CCN4C(=O)C(NC(=O)c2ncn(Cc4ccc(F)c(F)c4)n2)CC3)cn1 (stereo not drawn) [III-12]
Outgoing: Fulfilled

Incoming: Also check Cn1cc(C#Cc2cc3c4c(c2)CCN4C(=O)C(NC(=O)c2ncn(Cc4c(F)cccc4F)n2)CC3)cn1 (stereo not drawn) [III-1]
Outgoing: Fulfilled

###

# assay text: Pharmacokinetic experiment in SD rats
# condition parameters: p.o, 5 mg/kg vs i.v, 0.5 mg/kg
Consider the following molecules; for each one, report its Fabs (%).
Write the number in % without appending the unit.

Incoming: Tell me the measured Fabs (%) of O=C(NC1CCc2cc(C#Cc3cnn(C(F)F)c3)cc3c2N(CC3)C1=O)c1ncn(Cc2ccccc2F)n1 (centres unmarked) , please.
Outgoing: 97.15

Incoming: Also check O=C(NC1CCc2cccc3c2N(CC3)C1=O)c1ncn(Cc2c(F)cccc2F)n1 (centres unmarked) [Example 13 in CN20191051 8248X, reference compound]
Outgoing: 12.55

Incoming: Also check Cn1cc(C#Cc2cc3c4c(c2)CCN4C(=O)C(NC(=O)c2ncn(Cc4cc(F)ccc4F)n2)CC3)cn1 (centres unmarked)
Outgoing: 51.37

Incoming: Also check Cn1cc(C#Cc2cc3c4c(c2)CCN4C(=O)C(NC(=O)c2ncn(Cc4ccc(F)c(F)c4)n2)CC3)cn1 (centres unmarked)
Outgoing: 64.54

Incoming: Also check C#Cc1cc2c3c(c1)CCN3C(=O)C(NC(=O)c1ncn(Cc3c(F)cccc3F)n1)CC2 (centres unmarked)
Outgoing: 51.2

Incoming: Also check O=C(NC1CCc2cc(C#Cc3cnn(C(F)F)c3)cc3c2N(CC3)C1=O)c1ncn(Cc2cc(F)ccc2F)n1 (centres unmarked)
Outgoing: 121.33

Incoming: Also check Cn1cc(C#Cc2cc3c4c(c2)CCN4C(=O)C(NC(=O)c2ncn(Cc4c(F)cccc4F)n2)CC3)cn1 (centres unmarked)
Outgoing: 111.92

Incoming: Also check CN1C(=O)[C@@H](NC(=O)c2nnc(Cc3ccccc3)[nH]2)COc2ccccc21 [GSK2982772, reference compound]
Outgoing: 39.13

###

Consider the following compounds; for each one, report its AUC(0-t).
# assay text: in vivo
# condition parameters: rat, in vivo, po, 5 mg/kg
Write the number in ng·h/mL without appending the unit.

Incoming: Tell me the measured AUC(0-t) of O=C(NC1CCc2cc(C#Cc3cnn(C(F)F)c3)cc3c2N(CC3)C1=O)c1ncn(Cc2cc(F)ccc2F)n1 (stereo not drawn) , please.
Outgoing: 8130

Incoming: Also check Cn1cc(C#Cc2cc3c4c(c2)CCN4C(=O)C(NC(=O)c2ncn(Cc4cc(F)ccc4F)n2)CC3)cn1 (stereo not drawn)
Outgoing: 27700

Incoming: Also check Cn1cc(C#Cc2cc3c4c(c2)CCN4C(=O)C(NC(=O)c2ncn(Cc4ccc(F)c(F)c4)n2)CC3)cn1 (stereo not drawn)
Outgoing: 60400

Incoming: Also check O=C(NC1CCc2cc(C#Cc3cnn(C(F)F)c3)cc3c2N(CC3)C1=O)c1ncn(Cc2ccccc2F)n1 (stereo not drawn)
Outgoing: 6250

Incoming: Also check C#Cc1cc2c3c(c1)CCN3C(=O)C(NC(=O)c1ncn(Cc3c(F)cccc3F)n1)CC2 (stereo not drawn)
Outgoing: 2810

Incoming: Also check Cn1cc(C#Cc2cc3c4c(c2)CCN4C(=O)C(NC(=O)c2ncn(Cc4c(F)cccc4F)n2)CC3)cn1 (stereo not drawn)
Outgoing: 22600
